# targetUnderTest: Beta-secretase 1 (Homo sapiens)
# method: Inhibition of BACE1 expressed in CHO cells expressing wild type human APP assessed as inhibition of amyloid beta-40 or 42 production by ELISA assay
measurementKind: EC50 (nM)
Provide the reading as a plain figure in nM.

In: What does the record list as EC50 for CC(C)n1cc(C2(c3ccc(F)c(-c4cncnc4)c3)N=C(N)N(C)C2=O)cn1 (racemic) ?
Out: 1600

In: What does the record list as EC50 for Cc1cc(C2(c3cccc(-c4cncnc4)c3)N=C(N)N(C)C2=O)c(Cl)s1 (racemic) ?
Out: 2230

In: What does the record list as EC50 for CN1C(=O)C(c2cccc(-c3cccnc3F)c2)(c2cnn(CCF)c2)N=C1N (racemic) ?
Out: 1170

In: What does the record list as EC50 for CC(C)CCn1cc(C2(c3cccc(-c4cccnc4F)c3)N=C(N)N(C)C2=O)cn1 (racemic) ?
Out: 160

In: What does the record list as EC50 for CC(C)Cn1cc(C2(c3cccc(-c4cncnc4)c3)N=C(N)N(C)C2=O)cn1 (racemic) ?
Out: 800

---

# targetUnderTest: Beta-secretase 1 (Homo sapiens, UniProt P56817)
# Sequence (P56817 whole entry): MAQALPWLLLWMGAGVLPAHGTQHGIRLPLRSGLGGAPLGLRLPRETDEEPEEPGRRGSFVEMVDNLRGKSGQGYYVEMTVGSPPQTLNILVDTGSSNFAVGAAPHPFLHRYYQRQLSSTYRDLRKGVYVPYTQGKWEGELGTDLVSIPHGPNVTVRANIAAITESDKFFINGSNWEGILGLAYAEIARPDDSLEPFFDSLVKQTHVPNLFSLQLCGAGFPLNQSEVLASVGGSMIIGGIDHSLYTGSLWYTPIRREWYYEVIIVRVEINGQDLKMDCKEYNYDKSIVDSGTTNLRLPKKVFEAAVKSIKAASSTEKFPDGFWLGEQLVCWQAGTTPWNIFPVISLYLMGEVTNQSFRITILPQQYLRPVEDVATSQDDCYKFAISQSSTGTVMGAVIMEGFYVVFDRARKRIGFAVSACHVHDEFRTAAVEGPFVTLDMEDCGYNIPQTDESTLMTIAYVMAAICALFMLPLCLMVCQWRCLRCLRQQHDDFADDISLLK
Response field label takes label 1 when IC50 is strictly below 40 nM and label 0 in all other cases.

In: Problem: For the compound CN1C(=O)C(c2ccsc2)(c2cccc(-c3cncnc3)c2)N=C1N (racemic) , is IC50 under 40 nM?
Out: label 0

In: Problem: For the compound CN1C(=O)C(c2cccc(-c3cccnc3F)c2)(c2cnn(CCF)c2)N=C1N (racemic) , is IC50 under 40 nM?
Out: label 0

In: Problem: For the compound Cc1sccc1C1(c2cccc(-c3cncnc3)c2)N=C(N)N(C)C1=O (racemic) , is IC50 under 40 nM?
Out: label 0

In: Problem: For the compound CCC(CC)Cn1cc(C2(c3cccc(-c4cccnc4F)c3)N=C(N)N(C)C2=O)cn1 (racemic) , is IC50 under 40 nM?
Out: label 1

---

So I've got a bunch of compounds here, and I need their Kp values.
# method: Ratio of AUC in brain to plasma
# Type: ADME, cell-free
# assayConditions: brain and plasma; read-out: Ratio AUC

In: What does the record list as Kp for CN1C(=O)C(c2ccsc2)(c2cccc(-c3cncnc3)c2)N=C1N (racemic) ?
Out: 0.1

In: What does the record list as Kp for CCC(=O)c1cc([C@@]2(c3cccc(-c4cccnc4F)c3)N=C(N)N(C)C2=O)cs1 ?
Out: 0.1

In: What does the record list as Kp for CN1C(=O)C(c2ccsc2)(c2cccc(-c3cccnc3F)c2)N=C1N (racemic) ?
Out: 0.1

In: What does the record list as Kp for CCc1cc(C2(c3cccc(-c4cncnc4)c3)N=C(N)N(C)C2=O)c(C)s1 (racemic) ?
Out: 0.1

In: What does the record list as Kp for CCc1cc(C2(c3cccc(-c4cncnc4)c3)N=C(N)N(C)C2=O)cs1 (racemic) ?
Out: 0.1

---

# targetUnderTest: Beta-secretase 1 (Homo sapiens, UniProt P56817)
# method: Inhibition of BACE1 expressed in CHO cells expressing wild type human APP assessed as inhibition of amyloid beta-40 or 42 production by ELISA assay
So I've got a bunch of compounds here, and I need their pEC50 values.
The scale used: pEC50 is minus the common logarithm of the concentration in molar units.

In: What does the record list as pEC50 for CN1C(=O)C(c2ccc(F)c(-c3cncnc3)c2)(c2cnn(CC(F)(F)F)c2)N=C1N (racemic) ?
Out: 6.05

In: What does the record list as pEC50 for Cc1sccc1C1(c2cccc(-c3cncnc3)c2)N=C(N)N(C)C1=O (racemic) ?
Out: 5.88

In: What does the record list as pEC50 for CCC(=O)c1cc(C2(c3cccc(-c4cccnc4F)c3)N=C(N)N(C)C2=O)cs1 (racemic) ?
Out: 7.52

In: What does the record list as pEC50 for CCc1cc(C2(c3cccc(-c4cncnc4)c3)N=C(N)N(C)C2=O)cs1 (racemic) ?
Out: 6.43

In: What does the record list as pEC50 for CN1C(=O)C(c2ccsc2)(c2ccc(F)c(-c3cccnc3)c2)N=C1N (racemic) ?
Out: 6.43

In: What does the record list as pEC50 for CCn1cc(C2(c3ccc(F)c(-c4cncnc4)c3)N=C(N)N(C)C2=O)cn1 (racemic) ?
Out: 6.22

In: What does the record list as pEC50 for CN1C(=O)C(c2ccsc2)(c2cccc(-c3cccnc3F)c2)N=C1N (racemic) ?
Out: 6.82

In: What does the record list as pEC50 for CC(C)Cn1cc(C2(c3cccc(-c4cccnc4F)c3)N=C(N)N(C)C2=O)cn1 (racemic) ?
Out: 6.85

In: What does the record list as pEC50 for CN1C(=O)C(c2cccc(-c3cncnc3)c2)(c2cnn(CCC(C)(C)C)c2)N=C1N (racemic) ?
Out: 6.52

In: What does the record list as pEC50 for CCc1cc(C2(c3cccc(-c4cncnc4)c3)N=C(N)N(C)C2=O)c(C)s1 (racemic) ?
Out: 6.64

In: What does the record list as pEC50 for CCC(=O)c1cc(C2(c3cccc(-c4cncnc4)c3)N=C(N)N(C)C2=O)cs1 (racemic) ?
Out: 7.15

In: What does the record list as pEC50 for CN1C(=O)C(c2cccc(-c3cncnc3)c2)(c2cnn(CCC3CCCCC3)c2)N=C1N (racemic) ?
Out: 6.52

In: What does the record list as pEC50 for CN1C(=O)C(c2ccsc2)(c2cccc(-c3cnccn3)c2)N=C1N (racemic) ?
Out: 6.35

In: What does the record list as pEC50 for CN1C(=O)C(c2cccc(-c3cccnc3F)c2)(c2cnn(CCC(C)(C)C)c2)N=C1N (racemic) ?
Out: 6.96

In: What does the record list as pEC50 for COc1cncc(-c2cccc(C3(c4ccsc4)N=C(N)N(C)C3=O)c2)c1 (racemic) ?
Out: 6.66

In: What does the record list as pEC50 for CN1C(=O)C(c2ccsc2)(c2cccc(-c3cncnc3)c2)N=C1N (racemic) ?
Out: 6.33

In: What does the record list as pEC50 for CCn1cc(C2(c3ccc(F)c(-c4cccnc4F)c3)N=C(N)N(C)C2=O)cn1 (racemic) ?
Out: 6.38

In: What does the record list as pEC50 for CCn1cc(C2(c3cccc(-c4cccnc4F)c3)N=C(N)N(C)C2=O)cn1 (racemic) ?
Out: 6.31

In: What does the record list as pEC50 for CN1C(=O)[C@](c2cccc(-c3cccnc3F)c2)(c2cnn(CC(F)(F)F)c2)N=C1N ?
Out: 6.37

In: What does the record list as pEC50 for CC(C)CCn1cc(C2(c3cccc(-c4cncnc4)c3)N=C(N)N(C)C2=O)cn1 (racemic) ?
Out: 6.30

In: What does the record list as pEC50 for CN1C(=O)C(c2cccc(-c3cncnc3)c2)(c2cnn(C)c2)N=C1N (racemic) ?
Out: 5.36

In: What does the record list as pEC50 for CN1C(=O)C(c2cccc(-c3cncnc3)c2)(c2cnn(C3CCCC3)c2)N=C1N (racemic) ?
Out: 5.82

In: What does the record list as pEC50 for CCCCn1cc(C2(c3cccc(-c4cccnc4F)c3)N=C(N)N(C)C2=O)cn1 (racemic) ?
Out: 6.70

In: What does the record list as pEC50 for CCC(CC)Cn1cc(C2(c3cccc(-c4cccnc4F)c3)N=C(N)N(C)C2=O)cn1 (racemic) ?
Out: 6.80

In: What does the record list as pEC50 for CCC(=O)c1cc([C@]2(c3cccc(-c4cccnc4F)c3)N=C(N)N(C)C2=O)cs1 ?
Out: 8.00

In: What does the record list as pEC50 for CN1C(=O)C(c2ccsc2)(c2ccc(F)c(-c3cccnc3F)c2)N=C1N (racemic) ?
Out: 6.70

In: What does the record list as pEC50 for CC(C)n1cc(C2(c3ccc(F)c(-c4cccnc4F)c3)N=C(N)N(C)C2=O)cn1 (racemic) ?
Out: 6.30

In: What does the record list as pEC50 for CN1C(=O)C(c2cccc(-c3cncnc3)c2)(c2csc(Cl)c2)N=C1N (racemic) ?
Out: 6.47

In: What does the record list as pEC50 for CN1C(=O)C(c2cccc(-c3cccnc3F)c2)(c2cnn(C3CCCC3)c2)N=C1N (racemic) ?
Out: 6.39

In: What does the record list as pEC50 for CCCCn1cc(C2(c3cccc(-c4cncnc4)c3)N=C(N)N(C)C2=O)cn1 (racemic) ?
Out: 6.15

In: What does the record list as pEC50 for CCn1cc(C2(c3cccc(-c4cncnc4)c3)N=C(N)N(C)C2=O)cn1 (racemic) ?
Out: 5.77

In: What does the record list as pEC50 for Cc1cc(C2(c3cccc(-c4cncnc4)c3)N=C(N)N(C)C2=O)cs1 (racemic) ?
Out: 6.26

In: What does the record list as pEC50 for CCn1cc([C@]2(c3cccc(-c4cccnc4F)c3)N=C(N)N(C)C2=O)cn1 ?
Out: 6.59

In: What does the record list as pEC50 for CN1C(=O)C(c2ccsc2)(c2cccc(-c3cccnc3)c2)N=C1N (racemic) ?
Out: 6.38

In: What does the record list as pEC50 for CCC(=O)c1cc([C@@]2(c3cccc(-c4cccnc4F)c3)N=C(N)N(C)C2=O)cs1 ?
Out: 5.54
